Documented self-splicing fitness (ln) across a set of sequences
Assay: self-splicing fitness, log relative to wild type (ln ratio); higher = more splicing; Tetrahymena group I intron in knt gene, E. coli kanamycin selection, DiMSum; sequences stand for … in CUCUCU…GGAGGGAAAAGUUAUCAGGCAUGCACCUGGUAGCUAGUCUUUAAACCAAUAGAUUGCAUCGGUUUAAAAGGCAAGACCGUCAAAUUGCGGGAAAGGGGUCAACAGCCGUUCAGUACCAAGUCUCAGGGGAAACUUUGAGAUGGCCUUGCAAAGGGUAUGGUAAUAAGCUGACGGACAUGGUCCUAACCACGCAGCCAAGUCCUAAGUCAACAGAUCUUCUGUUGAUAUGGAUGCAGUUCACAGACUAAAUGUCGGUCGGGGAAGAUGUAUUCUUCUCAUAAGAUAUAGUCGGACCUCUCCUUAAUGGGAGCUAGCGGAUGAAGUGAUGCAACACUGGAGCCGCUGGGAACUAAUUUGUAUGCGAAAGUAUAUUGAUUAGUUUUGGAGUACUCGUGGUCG;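 further: selection with 25 µg/mL kanamycin versus none on LB agar overnight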
Settings: 37 °C
API doc: respond with a numeric literal and nothing else, no unit.

Worked examples, 3 sequences total:
record_sequence=CGGGAGCAAUAUUACGCUGG measured_value=-2
record_sequence=GUACAGCAAUAUUACGUCGA measured_value=-1.78
record_sequence=UUACAGCAAUAUUACGGGCG measured_value=0.0547

Q) Entry GGGAAGCAAUAUUACGGCGA : reported self-splicing fitness (ln) = ?
A) 0.0664

Q) Another: ACAAAGCAAUAUUACGAAGA
A) -0.86

Q) Request: GAGAAGCAAUAUUACGAGUA
A) -1.73

Q) Another sequence to look at: UAUGAGCAAUAUUACGUUCG
A) -0.169

Q) Again, but for UCCUAGCAAUAUUACGCGUU
A) -0.94

Q) Same lookup for ACAUAGCAAUAUUACGUACA , please.
A) -1.25

Q) Same thing, different sequence: CUCCAGCAAUAUUACGCAAU
A) -2.43

Q) Then this sequence: CUGCAGCAAUAUUACGUAAC
A) -2.38

Q) Continue with CUUUAGCAAUAUUACGGUGA
A) -2.08

Q) Item: ACCCAGCAAUAUUACGACGA
A) -0.36

Q) Input AUAGAGCAAUAUUACGUUGA
A) -1.4

###

Test: self-splicing fitness, log relative to wild type (ln ratio); higher = more splicing; Tetrahymena group I intron in knt gene, E. coli kanamycin selection, DiMSum; sequences stand for … in CUCUCU…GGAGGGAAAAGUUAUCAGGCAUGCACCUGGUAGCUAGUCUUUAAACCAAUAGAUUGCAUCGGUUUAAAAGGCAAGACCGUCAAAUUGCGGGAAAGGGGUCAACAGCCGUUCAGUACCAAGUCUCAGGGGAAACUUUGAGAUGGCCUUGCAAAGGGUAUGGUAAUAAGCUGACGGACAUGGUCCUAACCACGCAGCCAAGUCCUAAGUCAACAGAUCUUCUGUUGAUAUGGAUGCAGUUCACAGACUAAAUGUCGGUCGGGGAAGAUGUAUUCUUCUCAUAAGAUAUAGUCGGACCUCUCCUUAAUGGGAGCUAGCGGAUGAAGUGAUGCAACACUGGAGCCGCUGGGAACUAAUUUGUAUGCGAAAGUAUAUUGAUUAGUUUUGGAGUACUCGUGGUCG
Conditions: 30 °C
Lab note: compare self-splicing fitness (ln) against -3. Equal or greater, write YES. Smaller, write NO.

Reference set, count: 3
record_sequence=UGUGAGCAAUAUUACGCUCU qualitative_label=YES
record_sequence=CCUAAGCAAUAUUACGUUAU qualitative_label=NO
record_sequence=GCUAAGCAAUAUUACGUUGC qualitative_label=YES

Q) Check if self-splicing fitness (ln) >= -3 (inclusive). Item: UUACAGCAAUAUUACGCAUG
A) YES

Q) # iterate: AUGUAGCAAUAUUACGUUCC
A) YES
